Assign EC50 to each entry below.
system: Plasmodium falciparum; assay: NOVARTIS: Inhibition of Plasmodium falciparum 3D7 (drug-susceptible) proliferation in erythrocyte-based infection assay; assay type: functional, organism-based; details: Plasmodium falciparum, 3D7
Numbers only; they are read as nM.

Problem: # get_value(readout='EC50', item= "Cc1cc(Nc2ccc(Cl)c(C)c2)n2nc(C)nc2n1" )
Solution: 983

Problem: Entry under review: "COc1ccc(-c2cnc3ccc(NCc4cccc(Cl)c4)nn23)cn1" . Reported EC50?
Solution: 805

Problem: What value of EC50 has been recorded for this entry: "CN1CCC(N2CCC(Oc3cccc(C(=O)NCCC4=CCCCC4)c3)CC2)CC1"
Solution: 780

Problem: What value of EC50 has been reported for the following compound? "CCN(CC)CCCN(Cc1cc2cc3c(cc2[nH]c1=O)OCCO3)C(=S)Nc1cccc(Cl)c1"
Solution: 1160

----------
Please go through the items and note down their CC50.
test: NOVARTIS: Cytotoxicity against human hepatocellular carcinoma cell line (Huh7); assay type: toxicity, cell-based, Huh-7; conditions: Huh7 cells (hepatocellular carcinoma cell line)

Problem: // lookup CC50 for "COc1cc(Nc2cncc(-c3ccncc3)n2)cc(OC)c1OC"
Solution: > 100 µM

Problem: If you can, please state the reported CC50 value of "Cc1ccc(CN2CCN(Cc3ccccc3)CC2)o1" .
Solution: > 8.97 µM

Problem: Query: CC50; subject: "CCCCN(CCCC)CCCNc1ncnc2c1[nH]c1ccc(C)cc12"
Solution: 7.41 µM

Problem: Entry under review: "COc1cc(/C=C2\SC(c3ccc(C)cc3)=NC2=O)cc(OC)c1OC" . Reported CC50?
Solution: > 10 µM

Problem: Would you mind telling me what CC50 value was observed for "COC(=O)C1=C(C)N(c2ccc(N(C)C)cc2)C(C)=C(C(=O)OC)C1c1ccc(Br)cc1" ?
Solution: > 10 µM

Problem: Dear colleague, I am looking for the recorded CC50 of the following compound: "COc1ccc(NC(=O)c2cc3cc(C4(O)CCN(CC(C)(C)C)CC4)ccc3o2)cc1OC"
Solution: > 10 µM

Problem: Item "CCc1nc(N)nc(N)c1-c1ccc(Cl)cc1" has what recorded CC50?
Solution: 45.6 µM

Problem: What CC50 value was documented for this compound, "N[C@@H](COP(=O)(O)O)C(=O)O" ?
Solution: > 10 µM

Problem: Which value of CC50 has been reported for O=C(O)C(Cc1ccc([N+](=O)[O-])cc1)NS(=O)(=O)c1ccc(OC(F)(F)F)cc1 (centres undefined) in the records?
Solution: > 10 µM

Problem: Need CC50, item "CC(C)Cc1ccc(C=CC(=O)NC2CC2)cc1"
Solution: > 100 µM

Problem: Consider the compound shown here: "CCOC(=O)CN(C)Cc1ccc2c(NC(=O)c3ccc(C)s3)c(C(=O)OC)sc2n1" What is its recorded CC50?
Solution: > 100 µM

Problem: What does the data say about its CC50? Entry: CC1CC2=C(CC1CNCCCN(C)C)C(C)(C)CCC2 (centres undefined)
Solution: > 10 µM

Problem: Need CC50, item CC(C)Cc1ccc(-c2csc(NC(=O)C3C4CCC(C4)C3C(=O)O)n2)cc1 (centres undefined)
Solution: > 100 µM

Problem: Would you kindly share the measured CC50 for "O=C(O)c1cc([N+](=O)[O-])ccc1Oc1cncc(Cl)c1" ?
Solution: > 10 µM
